Reported dCas9 with SSAP activity (normalized) values for a set of molecules
# System: gene editing with dCas9
# protocolDetails: Screen of 322 new SSAP proteins, gene editing activity with dCas9 (Table 5)
# Format: cell-based
# conditionDetails: normalized
I'd appreciate a reply containing only the number, no unit.

Recorded dCas9 with SSAP activity (normalized), per entry:
So for SSAP_17: SEQ ID NO: 186 (protein) ATNDELKNQLANKQNGGQVASAQSLDLKGLLEAPTMRKKFEKVLDKKAPQFLTSLLNLYNGDDYLQKTDPMTVVTSAMVAATLDLPIDKNLGYAWIVPYKGRAQFQLGYKGYIQLALRTGQYKSINVIEVRDGELLKWNRLTEEIELDLDNNTSEKVIGYCGYFQLINGFEKTVYWTRKEIEAHKKKFSKSDFGWKKDYDAMAKKTVLRNMLSKWGILSIDMQTAVTEDEAEPRERKDVTEDESIPDIIDAPITPSDTLEAGSEVQGSMI , the logged dCas9 with SSAP activity (normalized) turned out to be −0.491

So for SSAP_246: SEQ ID NO: 415; Anoxybacillus (protein, listed as Anoxybacillus sp.) ATTQSLKNQIAKKQNSNIQQGVTLKQLLNSESMKKRFEEVLGKRAQQFATSILNLYNSEKMLQKCEPMSIISSAMVAASLDLPVDKNLGYMYIVPYGTTATPIMGYRGYIQLALRTGQYKHINVIEVYEGELQKWDRLTEEFEMDSKQKKSDVVVGYAAYFELINGFRKTVYWTREQIEAHRKKYSKSDFGWKNDFDAMAKKTVLKSLLSKWGILSIEMQNAFNEDEKEVDTKEVKDITSEVQEAEYIEAEAFEVPIETETPQQEEIVFDAQ , the logged dCas9 with SSAP activity (normalized) turned out to be −0.611

So for SSAP_110: SEQ ID NO: 279; Aneurinibacillus tyrosinisolvens (protein, listed as Aneurinibacillus tyrosinisolvens) SDLKEKLEKRANETEAAPPSPAQTIAAYLKRMEPEIARALPKHMDVERLTRIALTTIRTNPRLLECTVPSLLGAVMQAAQLGLEPGLLGQCYIIPHGREATFIIGYKGMIDLARRSGNIKSIYAHDVRENDEFEYEYGLHPFLKHRPAMTDRGKFIGVYAVAHFNDGGYQFEFMPYEEIERRKLRSRSYKNGPWVTDYEEMAKKTVIRHMFKYLPLSVEIMRSAAQDETVRPDLTSDPVSIYERPIEGKIITAEDVQPEEIPNVPDAEQGDV , the logged dCas9 with SSAP activity (normalized) turned out to be −1.491

In the following, a different molecule is considered.
So for SSAP_26: SEQ ID NO: 195 (protein) TVQLVQPRNSDEYDFDQTKLDLIKRTICKGATNDELQLFIHACKRTGLDPFMRQIFAVKRWDSSTKKEIMTIQTGIDGYRLIADRTGKYAPGKDTEFGYDNKGNIRWAKAYIKKMTPDGQWHEISAIAFWEEYVQTTREGKSTLFWLKKSHIMLSKCTEALALRKTFPAERSGIYTKEEMAQEFSPLEEHLVERIAASRNDQGRS , the logged dCas9 with SSAP activity (normalized) turned out to be −0.852
